B1: glmS ribozyme (parent)
chain: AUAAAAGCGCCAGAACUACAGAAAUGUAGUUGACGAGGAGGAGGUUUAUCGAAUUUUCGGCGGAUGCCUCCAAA

Variants of: B1
test.summary: self-cleavage kobs at 160 uM GlcN6P; higher = faster cleavage; RNA array
experimental.parameters: with glucosamine-6-phosphate
Fewer inactive variants are shown than the library holds.
self-cleavage kobs at 160 uM GlcN6P: recorded values

INSERT INTO measurements (variant_description, assay_result) VALUES
  ('A33U G37A', '< 1e-05 s⁻¹');

[ask] Report self-cleavage kobs at 160 uM GlcN6P for C34G U46A please.
[reply] < 1e-05 s⁻¹

[ask] Report self-cleavage kobs at 160 uM GlcN6P for A33U G60A please.
[reply] < 1e-05 s⁻¹

[ask] Report self-cleavage kobs at 160 uM GlcN6P for A15G C67G please.
[reply] 7.63e-05 s⁻¹

[ask] Report self-cleavage kobs at 160 uM GlcN6P for A53G C71U please.
[reply] 0.0017 s⁻¹

[ask] Report self-cleavage kobs at 160 uM GlcN6P for G35C A36G U49A please.
[reply] < 1e-05 s⁻¹
